# PROTOCOL_DETAILS: in vivo
# Design: species or system mice
# CONDITION: male, NODSCID 1L2RγKO, mouse, iv, total radioactivity, Intestine uptake

{"COMPOUND": "O=C(O)CCC[C@H](NC(=O)N[C@@H](CCCCNC(=O)[C@H](Cc1c2ccccc2cc2ccccc12)NC(=O)[C@H]1CC[C@H](CNC(=O)CN2CCN(CC(=O)O)CCN(CC(=O)O)CCN(CC(=O)O)CC2)CC1)C(=O)O)C(=O)O [177Lu-HTK03149, metal not drawn]", "tissue uptake at 1 h": "0.27 %ID/g"}
{"COMPOUND": "COc1ccc(CCCC(=O)NCC(=O)N[C@@H](CCCCNC(=O)CN2CCN(CC(=O)O)CCN(CC(=O)O)CCN(CC(=O)O)CC2)C(=O)NC[C@H]2CC[C@H](C(=O)N[C@@H](Cc3c4ccccc4cc4ccccc34)C(=O)NCCCC[C@H](NC(=O)N[C@@H](CCCC(=O)O)C(=O)O)C(=O)O)CC2)cc1 [177Lu-HTK03170, metal not drawn]", "tissue uptake at 1 h": "1.19 %ID/g"}
{"COMPOUND": "O=C(O)CCC[C@H](NC(=O)N[C@@H](CCCCNC(=O)[C@H](Cc1c2ccccc2cc2ccccc12)NC(=O)[C@H]1CC[C@H](CNC(=O)[C@H](CCCCNC(=O)CN2CCN(CC(=O)O)CCN(CC(=O)O)CCN(CC(=O)O)CC2)NC(=O)CNC(=O)CCCc2ccc(Cl)cc2)CC1)C(=O)O)C(=O)O [177Lu-HTK03153, metal not drawn]", "tissue uptake at 1 h": "1.56 %ID/g"}
{"COMPOUND": "COc1ccc(CCCC(=O)NCC(=O)N[C@@H](CCCCNC(=O)CN2CCN(CC(=O)O)CCN(CC(=O)O)CCN(CC(=O)O)CC2)C(=O)NC[C@H]2CC[C@H](C(=O)N[C@@H](Cc3c4ccccc4cc4ccccc34)C(=O)NCCCC[C@H](NC(=O)N[C@@H](COCC(=O)O)C(=O)O)C(=O)O)CC2)cc1 [177Lu-HTK04028, metal not drawn]", "tissue uptake at 1 h": "1.23 %ID/g"}
{"COMPOUND": "COc1ccc(CCCC(=O)NCC(=O)N[C@@H](CCCCNC(=O)CN2CCN(CC(=O)O)CCN(CC(=O)O)CCN(CC(=O)O)CC2)C(=O)NC[C@H]2CC[C@H](C(=O)N[C@@H](Cc3c4ccccc4cc4ccccc34)C(=O)NCCCC[C@H](NC(=O)N[C@@H](CSCC(=O)O)C(=O)O)C(=O)O)CC2)cc1 [177Lu-HTK04048, metal not drawn]", "tissue uptake at 1 h": "1.26 %ID/g"}

----------
# PROTOCOL_DETAILS: in vivo
# Set-up: species or system mice
# CONDITION: male, NODSCID 1L2RγKO, mouse, iv, total radioactivity, Blood uptake
ATTRIBUTE_MEASURED: tissue uptake at 120 h (%ID/g)

{"COMPOUND": "COc1ccc(CCCC(=O)NCC(=O)N[C@@H](CCCCNC(=O)CN2CCN(CC(=O)O)CCN(CC(=O)O)CCN(CC(=O)O)CC2)C(=O)NC[C@H]2CC[C@H](C(=O)N[C@@H](Cc3c4ccccc4cc4ccccc34)C(=O)NCCCC[C@H](NC(=O)N[C@@H](CCCC(=O)O)C(=O)O)C(=O)O)CC2)cc1 [177Lu-HTK03170, metal not drawn]", "RECORDED_RESULT": 0.02}
{"COMPOUND": "COc1ccc(CCCC(=O)NCC(=O)N[C@@H](CCCCNC(=O)CN2CCN(CC(=O)O)CCN(CC(=O)O)CCN(CC(=O)O)CC2)C(=O)NC[C@H]2CC[C@H](C(=O)N[C@@H](Cc3c4ccccc4cc4ccccc34)C(=O)NCCCC[C@H](NC(=O)N[C@@H](COCC(=O)O)C(=O)O)C(=O)O)CC2)cc1 [177Lu-HTK04028, metal not drawn]", "RECORDED_RESULT": 0.02}
{"COMPOUND": "O=C(O)CCC[C@H](NC(=O)N[C@@H](CCCCNC(=O)[C@H](Cc1c2ccccc2cc2ccccc12)NC(=O)[C@H]1CC[C@H](CNC(=O)CN2CCN(CC(=O)O)CCN(CC(=O)O)CCN(CC(=O)O)CC2)CC1)C(=O)O)C(=O)O [177Lu-HTK03149, metal not drawn]", "RECORDED_RESULT": 0.02}
